Let's look at some molecules and their measured Retention_time.
# Test system: Liver microsome
# Assay Summary: Retention time in human liver microsomes treated with 10 uM 20(S)-ginsenoside Rh2 by MS2 spectra
# Assay type: ADME
Response body: numeric value in min, unit text excluded.

- Molecule: "CC(O)(CO)[C@@H]1CC[C@@](C)([C@H]2CC[C@]3(C)[C@@H]2[C@H](O)C[C@@H]2[C@@]4(C)CC[C@H](O[C@@H]5O[C@H](CO)[C@@H](O)[C@H](O)[C@H]5O)C(C)(C)[C@@H]4CC[C@]23C)O1 (stereo partly specified)"
  Assay Endpoint: "Retention_time"
  Recorded Result: 16.2
- Molecule: "CC(C)(O)[C@H]1CC[C@@](C)([C@H]2CC[C@]3(C)[C@@H]2[C@H](O)C[C@@H]2[C@@]4(C)CC[C@H](O[C@@H]5O[C@H](CO)[C@@H](O)[C@H](O)[C@H]5O)C(C)(C)[C@@H]4CC[C@]23C)O1"
  Assay Endpoint: "Retention_time"
  Recorded Result: 20.2
- Molecule: "CC1(C)O[C@H]1CC[C@](C)(O)[C@H]1CC[C@]2(C)[C@@H]1[C@H](O)C[C@@H]1[C@@]3(C)CC[C@H](O[C@@H]4O[C@H](CO)[C@@H](O)[C@H](O)[C@H]4O)C(C)(C)[C@@H]3CC[C@]12C"
  Assay Endpoint: "Retention_time"
  Recorded Result: 20
- Molecule: "C/C(=C/CC[C@](C)(O)[C@H]1CC[C@]2(C)[C@@H]1[C@H](O)C[C@@H]1[C@@]3(C)CC[C@H](O[C@@H]4O[C@H](CO)[C@@H](O)[C@H](O)[C@H]4O)C(C)(C)[C@@H]3CC[C@]12C)C(=O)O"
  Assay Endpoint: "Retention_time"
  Recorded Result: 13.2
- Molecule: "C/C(=C\\CC[C@](C)(O)[C@H]1CC[C@]2(C)[C@@H]1[C@H](O)C[C@@H]1[C@@]3(C)CC[C@H](O[C@@H]4O[C@H](CO)[C@@H](O)[C@H](O)[C@H]4O)C(C)(C)[C@@H]3CC[C@]12C)C(=O)O"
  Assay Endpoint: "Retention_time"
  Recorded Result: 14

Asked: Fill in: Retention_time of C/C(=C/CC[C@](C)(O)[C@H]1CC[C@]2(C)[C@@H]1[C@H](O)C[C@@H]1[C@@]3(C)CC[C@H](O[C@@H]4O[C@H](CO)[C@@H](O)[C@H](O)[C@H]4O)C(C)(C)[C@@H]3CC[C@]12C)CO is ___
Given back: 18.3

* * *

# Assay Summary: Drug excretion in rat feces at 50 mg/kg, po
# Format: ADME, organism-based
# Parameters: dose 50 mg/kg, route oral
# Settings: faeces, read-out: Drug excretion
Assay Endpoint: dose excreted

Asked: Please report the recorded dose excreted for CC(C)=CCC[C@](C)(O)[C@H]1CC[C@]2(C)[C@@H]1[C@H](O)C[C@@H]1[C@@]3(C)CC[C@H](O[C@@H]4O[C@H](CO)[C@@H](O)[C@H](O)[C@H]4O)C(C)(C)[C@@H]3CC[C@]12C [GINSENOSIDE RH2] .
Given back: < 10%

* * *

# Target Desc: UniProt P20815
# Sequence (P20815 whole entry): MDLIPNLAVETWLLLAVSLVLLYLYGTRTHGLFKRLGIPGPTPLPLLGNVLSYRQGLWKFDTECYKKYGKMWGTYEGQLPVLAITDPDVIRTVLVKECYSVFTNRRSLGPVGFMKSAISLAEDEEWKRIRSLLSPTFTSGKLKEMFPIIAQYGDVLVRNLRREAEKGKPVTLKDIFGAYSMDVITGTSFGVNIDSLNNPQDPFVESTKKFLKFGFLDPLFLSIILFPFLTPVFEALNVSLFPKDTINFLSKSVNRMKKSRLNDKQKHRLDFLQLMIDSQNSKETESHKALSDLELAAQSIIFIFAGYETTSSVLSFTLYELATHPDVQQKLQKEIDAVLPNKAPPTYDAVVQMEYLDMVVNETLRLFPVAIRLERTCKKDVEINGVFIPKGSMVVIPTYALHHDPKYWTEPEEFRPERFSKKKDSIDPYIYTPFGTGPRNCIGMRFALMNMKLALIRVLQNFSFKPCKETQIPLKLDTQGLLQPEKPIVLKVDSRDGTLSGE
# Assay Summary: Drug level in human recombinant CYP3A5 treated with 10 uM 20(S)-ginsenoside Rh2 for 60 mins by MS2 spectra
# Format: ADME
# Settings: recombinant enzyme, 1 h
Assay Endpoint: Drug metabolism

Some molecules with known Drug metabolism results, for comparison:
- Molecule: "C/C(=C/CC[C@](C)(O)[C@H]1CC[C@]2(C)[C@@H]1[C@H](O)C[C@@H]1[C@@]3(C)CC[C@H](O[C@@H]4O[C@H](CO)[C@@H](O)[C@H](O)[C@H]4O)C(C)(C)[C@@H]3CC[C@]12C)CO"
  Drug metabolism: "metabolite_detected"
- Molecule: "CC1(C)[C@@H](O[C@@H]2O[C@H](CO)[C@@H](O)[C@H](O)[C@H]2O)CC[C@]2(C)[C@H]3C[C@@H](O)[C@@H]4[C@@H]([C@@](C)(O)CC[C@@H]5O[C@@]5(C)CO)CC[C@@]4(C)[C@]3(C)CC[C@@H]12"
  Drug metabolism: "metabolite_not_detected"
- Molecule: "C/C(=C\\CC[C@](C)(O)[C@H]1CC[C@]2(C)[C@@H]1[C@H](O)C[C@@H]1[C@@]3(C)CC[C@H](O[C@@H]4O[C@H](CO)[C@@H](O)[C@H](O)[C@H]4O)C(C)(C)[C@@H]3CC[C@]12C)CO"
  Drug metabolism: "metabolite_detected"
- Molecule: "CC(C)(O)[C@H]1CC[C@@](C)([C@H]2CC[C@]3(C)[C@@H]2[C@H](O)C[C@@H]2[C@@]4(C)CC[C@H](O[C@@H]5O[C@H](CO)[C@@H](O)[C@H](O)[C@H]5O)C(C)(C)[C@@H]4CC[C@]23C)O1"
  Drug metabolism: "metabolite_not_detected"
- Molecule: "CC(C)(O)C(CC[C@](C)(O)[C@H]1CC[C@]2(C)[C@@H]1[C@H](O)C[C@@H]1[C@@]3(C)CC[C@H](O[C@@H]4O[C@H](CO)[C@@H](O)[C@H](O)[C@H]4O)C(C)(C)[C@@H]3CC[C@]12C)SC[C@H](NC(=O)CC[C@H](N)C(=O)O)C(=O)NCC(=O)O (stereo partly drawn)"
  Drug metabolism: "metabolite_not_detected"

Asked: So what Drug metabolism did CC1(C)O[C@H]1CC[C@](C)(O)[C@H]1CC[C@]2(C)[C@@H]1[C@H](O)C[C@@H]1[C@@]3(C)CC[C@H](O[C@@H]4O[C@H](CO)[C@@H](O)[C@H](O)[C@H]4O)C(C)(C)[C@@H]3CC[C@]12C get with UniProt P20815?
Given back: metabolite_not_detected

Asked: Try this molecule too: C/C(=C\CC[C@](C)(O)[C@H]1CC[C@]2(C)[C@@H]1[C@H](O)C[C@@H]1[C@@]3(C)CC[C@H](O[C@@H]4O[C@H](CO)[C@@H](O)[C@H](O)[C@H]4O)C(C)(C)[C@@H]3CC[C@]12C)C(=O)O
Given back: metabolite_not_detected

Asked: Another molecule: CC(C)(O)[C@@H]1CC[C@@](C)([C@H]2CC[C@]3(C)[C@@H]2[C@H](O)C[C@@H]2[C@@]4(C)CC[C@H](O[C@@H]5O[C@H](CO)[C@@H](O)[C@H](O)[C@H]5O)C(C)(C)[C@@H]4CC[C@]23C)O1
Given back: metabolite_detected

* * *

# Assay Summary: Oral bioavailability in beagle dog at 8 mg/kg
# Format: ADME, organism-based, Canis lupus familiaris
# Settings: in vivo
Assay Endpoint: bioavailability (%)
Write the value in % as a bare number.

Asked: Form field: reported bioavailability of CC(C)=CCC[C@](C)(O)[C@H]1CC[C@]2(C)[C@@H]1[C@H](O)C[C@@H]1[C@@]3(C)CC[C@H](O[C@@H]4O[C@H](CO)[C@@H](O)[C@H](O)[C@H]4O)C(C)(C)[C@@H]3CC[C@]12C [GINSENOSIDE RH2]
Given back: 55

* * *

# Test system: Liver
# Assay Summary: Drug level in human liver S9 fraction treated with 10 uM 20(S)-ginsenoside Rh2 for 60 mins by MS2 spectra
# Format: ADME, subcellular
# Settings: s9, 1 h

- Compound: "CC(O)(CO)[C@H]1CC[C@@](C)([C@H]2CC[C@]3(C)[C@@H]2[C@H](O)C[C@@H]2[C@@]4(C)CC[C@H](O[C@@H]5O[C@H](CO)[C@@H](O)[C@H](O)[C@H]5O)C(C)(C)[C@@H]4CC[C@]23C)O1 (some centres not stated)"
  Drug metabolism: "metabolite_detected"
- Compound: "C/C(=C\\CC[C@](C)(O)[C@H]1CC[C@]2(C)[C@@H]1[C@H](O)C[C@@H]1[C@@]3(C)CC[C@H](O[C@@H]4O[C@H](CO)[C@@H](O)[C@H](O)[C@H]4O)C(C)(C)[C@@H]3CC[C@]12C)CO"
  Drug metabolism: "metabolite_detected"

* * *

# Assay Summary: Drug level in cynomolgus monkey liver microsomes treated with 10 uM 20(S)-ginsenoside Rh2 for 60 mins by MS2 spectra
# Assay type: ADME, Macaca fascicularis
# Settings: 1 h
Assay Endpoint: Drug metabolism

- Compound: "CC(O)(CO)[C@H]1CC[C@@](C)([C@H]2CC[C@]3(C)[C@@H]2[C@H](O)C[C@@H]2[C@@]4(C)CC[C@H](O[C@@H]5O[C@H](CO)[C@@H](O)[C@H](O)[C@H]5O)C(C)(C)[C@@H]4CC[C@]23C)O1 (some centres not stated)"
  Assay Endpoint: "Drug metabolism"
  Recorded Result: "metabolite_detected"
- Compound: "CC1(C)[C@@H](O[C@@H]2O[C@H](CO)[C@@H](O)[C@H](O)[C@H]2O)CC[C@]2(C)[C@H]3C[C@@H](O)[C@@H]4[C@@H]([C@@](C)(O)CC[C@@H]5O[C@@]5(C)CO)CC[C@@]4(C)[C@]3(C)CC[C@@H]12"
  Assay Endpoint: "Drug metabolism"
  Recorded Result: "metabolite_detected"
